Here the recorded Emax is given for each entry.
- Assayed target: Human AMPK α2ß2γ1 (Homo sapiens, UniProt O43741+P54646)
- Construct: The full length cDNAs of human AMPK ß2 (NM_005399.3) and human AMPK α2 (NM_006252.3); The full length cDNAs of human AMPK ß2 (NM_005399.3); 6xHis (N); made in house; host or cells: Escherichia coli BL21 CodonPlus (DE3)-RIL
- Sequence (P54646 whole entry): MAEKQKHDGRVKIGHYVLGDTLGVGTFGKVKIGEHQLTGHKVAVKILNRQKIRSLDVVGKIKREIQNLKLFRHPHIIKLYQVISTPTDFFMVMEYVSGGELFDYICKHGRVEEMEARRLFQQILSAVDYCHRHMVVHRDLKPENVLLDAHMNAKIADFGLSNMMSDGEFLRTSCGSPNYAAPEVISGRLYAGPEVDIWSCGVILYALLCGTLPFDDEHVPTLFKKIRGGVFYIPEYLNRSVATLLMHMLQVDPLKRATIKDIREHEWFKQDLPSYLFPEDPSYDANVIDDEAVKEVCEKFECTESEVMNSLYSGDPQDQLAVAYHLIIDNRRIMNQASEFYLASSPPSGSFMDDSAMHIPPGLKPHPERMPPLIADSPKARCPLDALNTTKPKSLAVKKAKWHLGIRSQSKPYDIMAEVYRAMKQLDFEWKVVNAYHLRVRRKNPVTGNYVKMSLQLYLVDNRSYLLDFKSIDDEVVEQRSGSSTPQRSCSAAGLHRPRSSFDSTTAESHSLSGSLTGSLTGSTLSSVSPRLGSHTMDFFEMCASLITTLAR
- Sequence (O43741 whole entry): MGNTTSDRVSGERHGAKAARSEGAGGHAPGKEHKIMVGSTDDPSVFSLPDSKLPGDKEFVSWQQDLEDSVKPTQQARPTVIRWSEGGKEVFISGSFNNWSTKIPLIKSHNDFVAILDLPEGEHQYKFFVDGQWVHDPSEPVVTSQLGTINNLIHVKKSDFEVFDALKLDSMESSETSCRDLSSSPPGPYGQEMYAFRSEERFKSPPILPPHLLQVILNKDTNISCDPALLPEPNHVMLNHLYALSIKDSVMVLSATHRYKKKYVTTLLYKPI
- Sequence (P54619 whole entry partner): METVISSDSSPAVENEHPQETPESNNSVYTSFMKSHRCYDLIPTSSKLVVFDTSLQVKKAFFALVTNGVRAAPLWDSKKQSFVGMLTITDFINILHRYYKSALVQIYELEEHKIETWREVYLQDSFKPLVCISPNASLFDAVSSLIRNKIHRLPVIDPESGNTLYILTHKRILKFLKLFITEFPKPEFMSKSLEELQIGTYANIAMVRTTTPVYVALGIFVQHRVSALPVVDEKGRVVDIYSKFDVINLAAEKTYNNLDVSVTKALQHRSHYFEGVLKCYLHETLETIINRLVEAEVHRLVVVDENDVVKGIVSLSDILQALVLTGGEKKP
- Procedure text: Test Example 2: activator evaluation on phosphorylated human AMPK α2ß2γ1 (mobility-shift assay, FL-Peptide 7)
- Type: biochemical
- Condition label: human AMPK α2ß2γ1 pre-phosphorylated with CaMKK2; control without compound = 100%; read-out: Emax (maximum rate of increase in activity within the measurement range)
Report the figure in % without appending any unit label.

Qu. Please indicate Emax recorded for CS(C)(=O)=Nc1ccc(-c2ccc(-c3nc4nc(O[C@@H]5CO[C@H](CO)C5(F)F)[nH]c4cc3F)cc2)nc1
Ans. 445

Qu. Tell us which Emax value is on record for CCS(=O)(CC)=Nc1ccc(-c2ccc(-c3nc4nc(O[C@@H]5CO[C@H](CO)C5(F)F)[nH]c4cc3F)cc2)cc1
Ans. 595

Qu. Return Emax (reported value) for this compound: CNS(C)(=O)=Nc1ccc(-c2ccc(-c3nc4nc(O[C@@H]5CO[C@H](CO)C5(F)F)[nH]c4cc3Cl)cc2)cc1 (stereo partly drawn)
Ans. 649

Qu. Provide only the value of recorded Emax for CS(C)(=O)=Nc1ccc(-c2ccc(-c3nc4nc(O[C@@H]5CO[C@H](CO)[C@H]5F)[nH]c4cc3F)cc2)cc1
Ans. 399

Qu. Annotate the compound CCS(=O)(CC)=Nc1ccc(-c2ccc(-c3nc4nc(O[C@@H]5CO[C@H](CO)C5(F)F)[nH]c4cc3Cl)cc2)cc1 with its measured Emax.
Ans. 575

Further cases:
Qu. Output Emax of O=S1(=Nc2ccc(-c3ccc(-c4nc5nc(O[C@@H]6CO[C@H](CO)C6(F)F)[nH]c5cc4Cl)cc3)cc2)CCOCC1
Ans. 578
